# assay method text: Water solubility (sonicated suspension, HPLC);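 also: concentration in the clear supernatant quantified by HPLC peak area against a DMSO standard solution of the same compound, corrected for dilution and injection volume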
# Type: physicochemical
# conditions: in water
Measured log10(Solubility) by item
Answers are given as log10 of Solubility in µg/mL.

{"columns": ["query smiles", "log10(Solubility)"],
 "data": [
  ["O=[N+]([O-])c1cn2c(n1)OC[C@@H](OCc1ccc(-c3ccc(C(F)(F)F)nc3)cc1)C2", 0.00],
  ["O=[N+]([O-])c1cn2c(n1)OC[C@@H](OCc1cnc(-c3ccc(OC(F)(F)F)cc3)nc1)C2", 0.32],
  ["O=[N+]([O-])c1cn2c(n1)OC[C@@H](OC/C=C/c1ccc(-c3ccc(OC(F)(F)F)cc3)cc1)C2", -0.30],
  ["O=[N+]([O-])c1cn2c(n1)OC[C@@H](OCc1ccc(-c3ccc(F)cn3)cc1)C2", 1.83]
]}

Output measured log10(Solubility) for this item: O=[N+]([O-])c1cn2c(n1)OC[C@@H](OCc1ccc(-c3ccc(OC(F)(F)F)cc3)nn1)C2
0.79

Output measured log10(Solubility) for this item: O=[N+]([O-])c1cn2c(n1)OC[C@@H](OCc1ccc(-c3ccc(OC(F)(F)F)c(Cl)c3)nc1)C2
-0.74

Output measured log10(Solubility) for this item: O=[N+]([O-])c1cn2c(n1)OC[C@@H](OCc1ccc(-c3ccc(OC(F)(F)F)c(F)c3)cn1)C2
1.48

###

Measured Microsomes (% remaining, 1 h) Human by item
# assay method text: Stability to human liver microsomes;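 also: parent compound quantified by LC-MS/MS against an internal standard, duplicates averaged, expressed relative to the 0 min sample taken as 100%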
# Format: in vitro ADME
# conditions: 1 μM, 37° C., 60 min, pooled human liver microsomes
Reply with just the number (in %).

As a guide, the following entries are already answered.
{"columns": ["query smiles", "assay value"],
 "data": [
  ["O=[N+]([O-])c1cn2c(n1)OC[C@@H](OCc1ccc(C#Cc3ccc(C(F)(F)F)nc3)cn1)C2", 88],
  ["O=[N+]([O-])c1cn2c(n1)OC[C@@H](OCc1ccc(-c3ccc(F)cc3)nc1)C2", 88],
  ["O=[N+]([O-])c1cn2c(n1)OC[C@@H](OCc1ccc(-c3ccc(C(F)(F)F)cn3)cc1F)C2", 90],
  ["O=[N+]([O-])c1cn2c(n1)OC[C@@H](OCc1ncc(-c3ccc(OC(F)(F)F)cc3)cn1)C2", 92]
]}

Now for the molecule whose Microsomes (% remaining, 1 h) Human we want.
Output measured Microsomes (% remaining, 1 h) Human for this item: O=[N+]([O-])c1cn2c(n1)OC[C@@H](OCc1ccc(-c3ccc(OC(F)(F)F)cc3Cl)cc1)C2
91
